Tested on: Methicillin resistant Staphylococcus pseudintermedius, (C22963)
Format: cell-based
settings: 18 h
Non-standard residues stand in square brackets, D forms with d. Residues, ends and D or L forms follow the SMILES beside them. N(1-naphthylmethyl)Gly = O=C(O)CNCc1cccc2ccccc12; 1Nal = N[C@@H](Cc1cccc2ccccc12)C(=O)O; d1Nal = N[C@H](Cc1cccc2ccccc12)C(=O)O; N(4-MeBn)Gly = Cc1ccc(CNCC(=O)O)cc1; dNle = CCCC[C@@H](N)C(=O)O; Nle = CCCC[C@H](N)C(=O)O; NBuGly = CCCCNCC(=O)O; Nlys = NCCCCNCC(=O)O
measured parameter: MIC MRSP (µg/mL)
Entry rule: numbers only, all in µg/mL.

Some solved cases for reference:
>  <compound>
CCCCN(CC(N)=O)C(=O)CN(CCCCN)C(=O)CN(Cc1cccc2ccccc12)C(=O)CN(CCCCN)C(=O)CNC(=O)CN(Cc1cccc2ccccc12)C(=O)CN(CCCCN)C(=O)CNCCCCN [compound 4] (H-[Nlys][Nlys][N(1-naphthylmethyl)Gly]G[Nlys][N(1-naphthylmethyl)Gly][Nlys][NBuGly]-NH2; N-terminus assumed)

>  <tested target>
Methicillin resistant Staphylococcus pseudintermedius, (C22963)

>  <MIC MRSP (µg/mL)>
32

$$$$
>  <compound>
CCCCN(CC(N)=O)C(=O)CN(CCCCN)C(=O)CN(Cc1cccc2ccccc12)C(=O)CN(CCCCN)C(=O)CN(Cc1ccc(C)cc1)C(=O)CN(Cc1cccc2ccccc12)C(=O)CNC(=O)CNCCCCN [compound 2] (H-[Nlys]G[N(1-naphthylmethyl)Gly][N(4-MeBn)Gly][Nlys][N(1-naphthylmethyl)Gly][Nlys][NBuGly]-NH2; N-terminus assumed)

>  <tested target>
Methicillin resistant Staphylococcus pseudintermedius, (C22963)

>  <MIC MRSP (µg/mL)>
8

$$$$
>  <compound>
CCCC[C@@H](NC(=O)CN(CCCCN)C(=O)[C@@H](Cc1cccc2ccccc12)NC(=O)CN(CCCCN)C(=O)[C@@H](Cc1ccccc1)NC(=O)[C@@H](Cc1cccc2ccccc12)NC(=O)CN(CCCCN)C(=O)CNCCCCN)C(N)=O [compound 15] (H-[Nlys][Nlys][d1Nal][dF][Nlys][d1Nal][Nlys][dNle]-NH2; N-terminus assumed)

>  <tested target>
Methicillin resistant Staphylococcus pseudintermedius, (C22963)

>  <MIC MRSP (µg/mL)>
4

$$$$
>  <compound>
CCCC[C@@H](NC(=O)[C@@H](CCCCN)NC(=O)[C@@H](Cc1cccc2ccccc12)NC(=O)[C@@H](CCCCN)NC(=O)[C@@H](Cc1ccccc1)NC(=O)[C@@H](Cc1cccc2ccccc12)NC(=O)[C@@H](CCCCN)NC(=O)[C@H](N)CCCCN)C(N)=O [D2D] (H-[dK][dK][d1Nal][dF][dK][d1Nal][dK][dNle]-NH2)

>  <tested target>
Methicillin resistant Staphylococcus pseudintermedius, (C22963)

>  <MIC MRSP (µg/mL)>
4

$$$$
>  <compound>
CCCCN(CC(N)=O)C(=O)CN(CCCCN)C(=O)CN(Cc1cccc2ccccc12)C(=O)CNC(=O)CN(Cc1ccc(C)cc1)C(=O)CN(Cc1cccc2ccccc12)C(=O)CN(CCCCN)C(=O)CNCCCCN [compound 5] (H-[Nlys][Nlys][N(1-naphthylmethyl)Gly][N(4-MeBn)Gly]G[N(1-naphthylmethyl)Gly][Nlys][NBuGly]-NH2; N-terminus assumed)

>  <tested target>
Methicillin resistant Staphylococcus pseudintermedius, (C22963)

>  <MIC MRSP (µg/mL)>
4

$$$$
>  <compound>
CCCCN(CC(N)=O)C(=O)CNC(=O)CN(Cc1cccc2ccccc12)C(=O)CN(CCCCN)C(=O)CN(Cc1ccc(C)cc1)C(=O)CN(Cc1cccc2ccccc12)C(=O)CN(CCCCN)C(=O)CNCCCCN [compound 7] (H-[Nlys][Nlys][N(1-naphthylmethyl)Gly][N(4-MeBn)Gly][Nlys][N(1-naphthylmethyl)Gly]G[NBuGly]-NH2; N-terminus assumed)

>  <tested target>
Methicillin resistant Staphylococcus pseudintermedius, (C22963)

>  <MIC MRSP (µg/mL)>
4

$$$$
>  <compound>
CCCCN(CC(N)=O)C(=O)CN(CCCCN)C(=O)CN(Cc1cccc2ccccc12)C(=O)CN(CCCCN)C(=O)CN(Cc1ccc(C)cc1)C(=O)CNC(=O)CN(CCCCN)C(=O)CNCCCCN [compound 3] (H-[Nlys][Nlys]G[N(4-MeBn)Gly][Nlys][N(1-naphthylmethyl)Gly][Nlys][NBuGly]-NH2; N-terminus assumed)

>  <tested target>
Methicillin resistant Staphylococcus pseudintermedius, (C22963)

>  <MIC MRSP (µg/mL)>
64

$$$$
>  <compound>
CCCCN(CC(N)=O)C(=O)CN(CCCCN)C(=O)CN(Cc1cccc2ccccc12)C(=O)CN(CCCCN)C(=O)[C@@H](Cc1ccccc1)NC(=O)[C@@H](Cc1cccc2ccccc12)NC(=O)[C@@H](CCCCN)NC(=O)[C@H](N)CCCCN [compound 14] (H-[dK][dK][d1Nal][dF][Nlys][N(1-naphthylmethyl)Gly][Nlys][NBuGly]-NH2; N-terminus assumed)

>  <tested target>
Methicillin resistant Staphylococcus pseudintermedius, (C22963)

>  <MIC MRSP (µg/mL)>
4

$$$$
>  <compound>
CCCCN(CC(N)=O)C(=O)[C@@H](CCCCN)NC(=O)CN(Cc1cccc2ccccc12)C(=O)[C@@H](CCCCN)NC(=O)CN(Cc1ccc(C)cc1)C(=O)CN(Cc1cccc2ccccc12)C(=O)[C@@H](CCCCN)NC(=O)[C@H](N)CCCCN [compound 16] (H-[dK][dK][N(1-naphthylmethyl)Gly][N(4-MeBn)Gly][dK][N(1-naphthylmethyl)Gly][dK][NBuGly]-NH2; N-terminus assumed)

>  <tested target>
Methicillin resistant Staphylococcus pseudintermedius, (C22963)

>  <MIC MRSP (µg/mL)>
4

$$$$
>  <compound>
CCCC[C@H](N)C(=O)N[C@@H](CCCCN)C(=O)N[C@@H](Cc1cccc2ccccc12)C(=O)N[C@@H](CCCCN)C(=O)N[C@@H](Cc1ccccc1)C(=O)N[C@@H](Cc1cccc2ccccc12)C(=O)N[C@@H](CCCCN)C(=O)N[C@@H](CCCCN)C(N)=O [D2R] (H-[Nle]K[1Nal]KF[1Nal]KK-NH2; N-terminus assumed)

>  <tested target>
Methicillin resistant Staphylococcus pseudintermedius, (C22963)

>  <MIC MRSP (µg/mL)>
4

$$$$

Fill in the recorded MIC MRSP for this compound, with Methicillin resistant Staphylococcus pseudintermedius, (C22963) as test system: Cc1ccc(CN(CC(=O)N(CCCCN)CC(=O)N(CC(=O)N(CCCCN)CC(=O)NCC(N)=O)Cc2cccc3ccccc23)C(=O)CN(Cc2cccc3ccccc23)C(=O)CN(CCCCN)C(=O)CNCCCCN)cc1 [compound 8] (H-[Nlys][Nlys][N(1-naphthylmethyl)Gly][N(4-MeBn)Gly][Nlys][N(1-naphthylmethyl)Gly][Nlys]G-NH2; N-terminus assumed)
8
